Data origin, for the record: patent US7875422B2

Target: HIV RT recovered from patient plasma (Human immunodeficiency virus type 1)
Experiment: Susceptibility to NNRTIs using plasma derived RTs
Type: biochemical, HIV-1
Conditions: plasma RT of patient code 3980 (V179T/A/I); 1.7 fg/well
Source text: Place them in a Nalgene box. Suck the gels dry after each wash. […] Refit the upper part of the device.

- compound-structure-string: "CC(C)Nc1cccnc1N1CCN(C(=O)c2cc3cc(NS(C)(=O)=O)ccc3[nH]2)CC1"
  IC50 (µM): 7.51

====

Biological target: recombinant HIV 1 RT wild type (Human immunodeficiency virus type 1 group M subtype B, UniProt P04585)
Construct: This variation was maximal for wild type RT; made in house
Assay: Influence of the amount of RT used in the drug susceptibility tests (AZT-TP)
Type: biochemical
Conditions: RT amount 2 fg/well
property-label: IC50 (µM)

- compound: "Cc1cn(C2CC(N=[N+]=[N-])C(COP(=O)(O)OP(=O)(O)OP(=O)(O)O)O2)c(=O)[nH]c1=O (stereo not shown) [AZT-TP]"
  property-label: "IC50"
  value-unit: "µM"
  result: 0.13
